Measured inhibition, listed per entry for reference.
# measurement.target: Aminopeptidase N (Plasmodium falciparum (isolate 3D7)) (UniProt O96935)
# Sequence (O96935 whole entry, looked up): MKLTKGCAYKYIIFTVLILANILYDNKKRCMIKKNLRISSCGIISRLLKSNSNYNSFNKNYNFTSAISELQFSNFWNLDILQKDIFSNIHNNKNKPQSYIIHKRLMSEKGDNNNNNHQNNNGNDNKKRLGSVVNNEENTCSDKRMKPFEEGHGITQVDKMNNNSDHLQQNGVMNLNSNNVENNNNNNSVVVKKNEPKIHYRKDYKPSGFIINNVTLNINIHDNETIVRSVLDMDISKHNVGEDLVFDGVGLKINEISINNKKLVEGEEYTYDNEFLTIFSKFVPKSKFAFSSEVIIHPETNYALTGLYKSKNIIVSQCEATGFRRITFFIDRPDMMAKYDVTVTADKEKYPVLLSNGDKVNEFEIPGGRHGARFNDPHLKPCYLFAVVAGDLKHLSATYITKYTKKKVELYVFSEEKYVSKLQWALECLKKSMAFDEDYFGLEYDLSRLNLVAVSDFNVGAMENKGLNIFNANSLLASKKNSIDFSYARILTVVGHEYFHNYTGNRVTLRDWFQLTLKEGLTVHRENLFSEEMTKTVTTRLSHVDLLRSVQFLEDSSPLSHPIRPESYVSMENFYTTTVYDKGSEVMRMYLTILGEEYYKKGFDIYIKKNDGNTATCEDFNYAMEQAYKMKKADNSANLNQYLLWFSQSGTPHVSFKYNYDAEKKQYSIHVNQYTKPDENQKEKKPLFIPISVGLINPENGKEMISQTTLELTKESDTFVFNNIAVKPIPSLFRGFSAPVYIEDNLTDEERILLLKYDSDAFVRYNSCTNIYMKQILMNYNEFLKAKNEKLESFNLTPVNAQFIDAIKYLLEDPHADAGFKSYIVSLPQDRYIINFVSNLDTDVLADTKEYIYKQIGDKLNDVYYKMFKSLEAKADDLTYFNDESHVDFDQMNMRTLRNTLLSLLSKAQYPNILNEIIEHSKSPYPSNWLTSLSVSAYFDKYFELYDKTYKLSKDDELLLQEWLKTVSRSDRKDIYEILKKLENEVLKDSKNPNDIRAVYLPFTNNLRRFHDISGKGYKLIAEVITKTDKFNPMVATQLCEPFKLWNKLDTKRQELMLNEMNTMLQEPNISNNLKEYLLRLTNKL
# experimental.details: malaria alanyl aminopeptidase activity blockers – biochemical, fluorogenic H-Leu-NHMec substrate, 1536-well (AID 1445);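 note: plate controls were DMSO full reaction for no effect and no enzyme background for full effect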
# experimental.conditions: recombinant M1AAP, H-Leu-NHMec fluorogenic kinetic assay; at 30 µM, active compounds read high unless noted
Among all 220,000 compounds or so, about 910 (0.41%) were called active. Shown is part of a subset that was picked to be rich in actives. Results with a measured potency or affinity are listed apart.
parameter: inhibition (%)

[
  {
    "compound": "Cc1ccc(CNC(=O)CCNS(=O)(=O)c2ccc(C)cc2)cc1",
    "parameter": "inhibition",
    "quantitative.result": 9.63
  },
  {
    "compound": "COc1ccc(Cc2nnc(SCC(=O)NC3CCCCC3)n2C)cc1",
    "parameter": "inhibition",
    "quantitative.result": 24.3
  },
  {
    "compound": "O=C(Nc1ccccc1)/C(=C/c1cccnc1)NC(=O)c1ccco1",
    "parameter": "inhibition",
    "quantitative.result": -3.98
  },
  {
    "compound": "CCOC(=O)c1ccc(NC(=S)NCCCN2CCOCC2)cc1",
    "parameter": "inhibition",
    "quantitative.result": -1.32
  },
  {
    "compound": "Cn1c(Cc2ccccc2)nnc1SCC(=O)NC1CCCCC1",
    "parameter": "inhibition",
    "quantitative.result": -1.27
  },
  {
    "compound": "COc1cccc(NC(=O)CSc2nc3n[nH]c(C)c3c(=N)n2-c2cccc(OC)c2)c1",
    "parameter": "inhibition",
    "quantitative.result": 1.29
  },
  {
    "compound": "O=C1c2ccccc2C(=O)N1n1c(=O)[nH]c2ccccc2c1=O",
    "parameter": "inhibition",
    "quantitative.result": 2.13
  },
  {
    "compound": "CCn1c(Cc2ccc(OC)cc2)nnc1SCC(=O)NC1CCCCC1",
    "parameter": "inhibition",
    "quantitative.result": 5.01
  },
  {
    "compound": "Cc1ccc(N(CC(=O)O)S(C)(=O)=O)cc1Cl",
    "parameter": "inhibition",
    "quantitative.result": -5.06
  },
  {
    "compound": "CCc1ccc(NC(=O)CSc2nc3n[nH]c(C)c3c(=N)n2-c2cccc(OC)c2)cc1",
    "parameter": "inhibition",
    "quantitative.result": 3.02
  },
  {
    "compound": "COc1ccc(/C=C2/S/C(=N/S(=O)(=O)Cc3ccccc3)NC2=O)cc1OC",
    "parameter": "inhibition",
    "quantitative.result": 12.7
  },
  {
    "compound": "CC(C)NS(=O)(=O)c1ccc(CCC(=O)Nc2ccc3c(c2)OCO3)cc1",
    "parameter": "inhibition",
    "quantitative.result": 9.11
  },
  {
    "compound": "Cc1ccn2c(NCc3ccc4c(c3)OCO4)c(-c3ccc(O)cc3)nc2c1",
    "parameter": "inhibition",
    "quantitative.result": 3.37
  },
  {
    "compound": "CCN1C(=O)c2ccc(C(=O)NCc3ccccc3)cc2C1=O",
    "parameter": "inhibition",
    "quantitative.result": 1.2
  },
  {
    "compound": "O=C(Nc1ccc2nn(-c3ccccc3)nc2c1)c1cccs1",
    "parameter": "inhibition",
    "quantitative.result": -15.1
  },
  {
    "compound": "CCOC(=O)c1ccc2[nH]c3c(c2c1)CCCC3O (stereo not drawn)",
    "parameter": "inhibition",
    "quantitative.result": 0.31
  },
  {
    "compound": "Cc1cc2c(=O)oc(-c3ccccc3Br)nc2s1",
    "parameter": "inhibition",
    "quantitative.result": -4.08
  },
  {
    "compound": "COc1ccc(C=O)cc1OS(=O)(=O)c1ccc(NC(C)=O)cc1",
    "parameter": "inhibition",
    "quantitative.result": 4.39
  },
  {
    "compound": "CC(C)(C)NS(=O)(=O)c1ccc(CCC(=O)NCc2ccc3c(c2)OCO3)cc1",
    "parameter": "inhibition",
    "quantitative.result": 18.7
  },
  {
    "compound": "COc1cc(/C=C(\\C#N)C(N)=O)ccc1OS(=O)(=O)c1ccc(C)cc1",
    "parameter": "inhibition",
    "quantitative.result": 12.9
  },
  {
    "compound": "O=C(CCc1ccc(S(=O)(=O)NCc2ccccc2)cc1)NCc1cccnc1",
    "parameter": "inhibition",
    "quantitative.result": 6.09
  },
  {
    "compound": "CCOc1ccc(/C=C2\\SC(=S)NC2=O)cc1OC",
    "parameter": "inhibition",
    "quantitative.result": 17.4
  },
  {
    "compound": "CC(C)N(Cc1nc(-c2ccccc2)no1)C(=O)C(Cl)(Cl)Cl",
    "parameter": "inhibition",
    "quantitative.result": 1.11
  }
]

====

# measurement.target: Aminopeptidase N (Plasmodium falciparum (isolate 3D7))
# experimental.details: malaria alanyl aminopeptidase activity blockers – biochemical, fluorogenic H-Leu-NHMec substrate, 1536-well (AID 1445);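 note: plate controls were DMSO full reaction for no effect and no enzyme background for full effect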
# experimental.conditions: recombinant M1AAP, H-Leu-NHMec fluorogenic kinetic assay; at 30 µM, active compounds read high unless noted
About 910 (0.41%) of roughly 220,000 compounds were called active. This excerpt belongs to a sample that is enriched for actives. Results with a measured potency or affinity are listed apart.
parameter: inhibition (%)

[
  {
    "compound": "O=C(NCc1ccccc1Cl)C1CCCN(S(=O)(=O)c2cnc[nH]2)C1 (stereo not drawn)",
    "parameter": "inhibition",
    "quantitative.result": 4.7
  },
  {
    "compound": "Cc1ccccc1NC(=O)CN1C(=O)C2C3CC(C(Br)C3Br)C2C1=O (stereo not drawn)",
    "parameter": "inhibition",
    "quantitative.result": 5.98
  },
  {
    "compound": "Cc1ccc(CNC(=O)C2CCCN(S(=O)(=O)c3cnc[nH]3)C2)cc1 (stereo not drawn)",
    "parameter": "inhibition",
    "quantitative.result": -2.21
  },
  {
    "compound": "CCCCNC(=O)C1CCN(S(=O)(=O)c2cnc[nH]2)CC1",
    "parameter": "inhibition",
    "quantitative.result": 14.7
  },
  {
    "compound": "CCCn1c2c(c(O)c(C(=O)Nc3ncccc3C)c1=O)CCCC2",
    "parameter": "inhibition",
    "quantitative.result": 5.08
  },
  {
    "compound": "O=C(CSc1ccc(-c2ccccn2)nn1)c1ccc(F)cc1",
    "parameter": "inhibition",
    "quantitative.result": 1.12
  },
  {
    "compound": "CCCCN1CNC(=S)N(c2ccccc2OCC)C1",
    "parameter": "inhibition",
    "quantitative.result": 1.13
  },
  {
    "compound": "O=C1Nc2ccc(Cl)cc2C12Nc1ccccc1-c1nnc(SCc3ccccc3F)nc1O2 (stereo not drawn)",
    "parameter": "inhibition",
    "quantitative.result": 19.9
  },
  {
    "compound": "O=C(O)c1ccc(-c2nc(-c3ccccc3)c(-c3ccccc3)[nH]2)cc1",
    "parameter": "inhibition",
    "quantitative.result": 23.1
  },
  {
    "compound": "O=C(CN1C(=O)C2C3C=CC(C3)C2C1=O)Nc1ccc(C(=O)O)cc1 (stereo not drawn)",
    "parameter": "inhibition",
    "quantitative.result": 14.6
  },
  {
    "compound": "CC(C)Cn1c2c(c(O)c(C(=O)Nc3ncccc3O)c1=O)CCCC2",
    "parameter": "inhibition",
    "quantitative.result": 16.5
  },
  {
    "compound": "CCCCC(CC)CNC(=O)C1CCCN(S(=O)(=O)c2cnc[nH]2)C1 (stereo not drawn)",
    "parameter": "inhibition",
    "quantitative.result": 24.2
  },
  {
    "compound": "CCOC(=O)CSCC(=O)Nc1nnc(-c2cccc([N+](=O)[O-])c2)s1",
    "parameter": "inhibition",
    "quantitative.result": 2.17
  },
  {
    "compound": "O=Cc1c(OCc2ccccc2)ccc2ccccc12",
    "parameter": "inhibition",
    "quantitative.result": 16.3
  },
  {
    "compound": "COc1cc(/C=C/C(=O)NCCn2c(C)cc3ccccc32)cc(OC)c1OC",
    "parameter": "inhibition",
    "quantitative.result": 8.36
  },
  {
    "compound": "CCOC(=O)c1ccc(N2C(=O)C(O)=C(C(C)=O)C2c2ccc(O)c(OC)c2)cc1 (stereo not drawn)",
    "parameter": "inhibition",
    "quantitative.result": 11
  },
  {
    "compound": "O=C1CCn2nc(-c3ccc(Cl)cc3)cc2N1",
    "parameter": "inhibition",
    "quantitative.result": 0.78
  },
  {
    "compound": "Nn1c(SCC(=O)NC2CCCCC2)nnc1-c1ccccc1",
    "parameter": "inhibition",
    "quantitative.result": 3.83
  },
  {
    "compound": "COc1ccccc1CCNS(=O)(=O)c1cn(C)c(=O)n(C)c1=O",
    "parameter": "inhibition",
    "quantitative.result": -3.3
  },
  {
    "compound": "Cc1cccc(C)c1OCC(=O)NCc1nnc(SCC(=O)NC2CCCCC2)n1C",
    "parameter": "inhibition",
    "quantitative.result": 3.03
  },
  {
    "compound": "Cc1cccc(C)c1OCC(=O)NCc1nnc(SCC(=O)NC2CCCCC2C)n1C (stereo not drawn)",
    "parameter": "inhibition",
    "quantitative.result": 24.1
  },
  {
    "compound": "CCn1c(Cn2nnc(-c3ccccc3)n2)nnc1SCC(=O)Nc1cccc(C(C)=O)c1",
    "parameter": "inhibition",
    "quantitative.result": 0.07
  },
  {
    "compound": "CC(C)Oc1ccc2ccccc2c1C=O",
    "parameter": "inhibition",
    "quantitative.result": 23.8
  }
]
